- assayed-target: LNX1_3, Q8TBB1
- Sequence (Q8TBB1 500-596): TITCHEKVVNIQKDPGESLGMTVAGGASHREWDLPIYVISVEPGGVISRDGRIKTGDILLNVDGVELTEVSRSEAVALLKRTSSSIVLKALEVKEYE
- assay-info: holdup assay
- Parameters: key: below the threshold = too weak to quantify, mostly under pKd 3.1 to 4
- experimental-conditions: plain residues with an end cap or a label only (N-terminal biotin on a linker: ado-ado)
assay-endpoint: pKd

{"binder": "HSGYRLNDYV [CLDN14, O95500]", "pKd": "below the threshold"}
{"binder": "TLPRKRMSSI [GPRC6A, Q5T6X5]", "pKd": "below the threshold"}
{"binder": "YLEPVLSSEL [ATP2A2, P16615;P16615-3]", "pKd": "below the threshold"}
{"binder": "SAKVRTVTSV [RASL11B, Q9BPW5]", "pKd": "below the threshold"}
{"binder": "SARSRLSSNL [HCN2, Q9UL51]", "pKd": "below the threshold"}

State the recorded pKd for this entry: YRLAQESGLV [ABCC6, O95255] below the threshold

State the recorded pKd for this entry: DDPSTAETVL [ABCA7, Q8IZY2] below the threshold

State the recorded pKd for this entry: FNSYSLTGYV [CLDN2, P57739] below the threshold

Each recorded value in this set is attributed to paper PMC9482650.
